Data origin: patent US20250171451A1

target.or.system: recombinant GST-TEAD1 proteins (209 to 426 a.a.) (Homo sapiens)
Construct: recombinant GST-TEAD1 proteins (209 to 426 a.a.)
Sequence (P28347 209-426): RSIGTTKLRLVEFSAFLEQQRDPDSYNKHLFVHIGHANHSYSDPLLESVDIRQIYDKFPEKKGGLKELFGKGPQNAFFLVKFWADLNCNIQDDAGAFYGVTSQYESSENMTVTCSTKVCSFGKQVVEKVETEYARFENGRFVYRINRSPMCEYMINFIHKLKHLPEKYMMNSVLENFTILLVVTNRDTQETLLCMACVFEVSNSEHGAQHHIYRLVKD
assay.method.text: Evaluation of palmitoylation of TEAD protein
Format: biochemical
test.context: 5 μM compound, 15 minutes preincubation, 3 μM alkyne palmitoyl-CoA 30 minutes, pH 6.4, vs DMSO control
reported.property: inhibition at 5 µM

Solved cases (3 shown):
INSERT INTO results (compound, result) VALUES
  ('C=CC(=O)N(C)c1cnc2c(c1)c(C)nn2-c1ccc(Cl)cc1 [Compound 91]', '> 80%'),
  ('Cc1cn(Cc2ccc(C(F)(F)F)cc2)c2ncc(NC(=O)C(C)C)cc12 [Compound 25]', '40 to 80%'),
  ('C=CC(=O)Nc1ncc2c(C)nn(Cc3ccc(C(F)(F)F)cc3)c2n1 [Compound 20]', '< 40%');

IN: Look up and report measured inhibition at 5 µM for this entry: C=CC(=O)Nc1cnc2c(c1)c(C)nn2Cc1ccc(C(F)(F)F)c(OC)c1 [Compound 61]
OUT: < 40%

IN: Look up and report measured inhibition at 5 µM for this entry: C=CC(=O)N(C)c1cnc2c(c1)c(C)nn2-c1ccc(C(F)(F)F)cc1 [Compound 86]
OUT: > 80%

---

target.or.system: recombinant GST-TEAD1 proteins (209 to 426 a.a.) (Homo sapiens)
Construct: recombinant GST-TEAD1 proteins (209 to 426 a.a.)
assay.method.text: Evaluation of palmitoylation of TEAD protein
Assay type: biochemical
test.context: 5 μM compound, 15 minutes preincubation, 3 μM alkyne palmitoyl-CoA 30 minutes, pH 6.4, vs DMSO control
reported.property: inhibition at 5 µM

Solved cases (4 shown):
INSERT INTO measurements (compound, reported_property, result) VALUES
  ('C=CC(=O)Nc1cnc2c(c1)c(C)nn2-c1ccc(O)cc1 [Compound 98]', 'inhibition at 5 µM', '< 40%'),
  ('C=CC(=O)Nc1cnc2c(c1)c(C)nn2Cc1ccc(C(C)(C)C)cc1 [Compound 60]', 'inhibition at 5 µM', '40 to 80%'),
  ('C=CC(=O)Nc1cnc2c(c1)c(C)cn2-c1ccc(C(C)C)cc1 [Compound 47]', 'inhibition at 5 µM', '> 80%'),
  ('C=CC(=O)Nc1cnc2c(c1)c(C)nn2-c1ccccc1C [Compound 75]', 'inhibition at 5 µM', '40 to 80%');

Please look at the following compound next.
IN: Fill: inhibition at 5 µM (recombinant GST-TEAD1 proteins (209 to 426 a.a.) (Homo sapiens)) for this compound C=CC(=O)Nc1cnc2c(c1)c(C)nn2-c1ccc(C(F)(F)F)c(Cl)c1 [Compound 72]
OUT: 40 to 80%

---

target.or.system: recombinant GST-TEAD1 proteins (209 to 426 a.a.) (Homo sapiens)
Construct: recombinant GST-TEAD1 proteins (209 to 426 a.a.)
assay.method.text: Evaluation of palmitoylation of TEAD protein
Assay type: biochemical
test.context: 5 μM compound, 15 minutes preincubation, 3 μM alkyne palmitoyl-CoA 30 minutes, pH 6.4, vs DMSO control
Recorded inhibition at 5 µM for the following molecules

INSERT INTO measurements (molecule, result) VALUES
  ('C=CC(=O)Nc1cnc2c(c1)c(C)cn2CCC(C)C [Compound 26]', '> 80%'),
  ('C=CC(=O)Nc1cnc2c(c1)c(C)nn2Cc1ccc(C(F)F)cc1 [Compound 67]', '< 40%'),
  ('C=CC(=O)Nc1cnc2c(c1)c(C)nn2-c1ccc(Cl)cc1 [Compound 65]', '> 80%'),
  ('C=CC(=O)Nc1cnc2c(c1)c(C)cn2Cc1cccc(C(F)(F)F)c1 [Compound 55]', '40 to 80%');

IN: Look up and report measured inhibition at 5 µM for this entry: C=CC(=O)Nc1cnc2c(c1)c(C)cn2Cc1ccc(C(F)(F)F)s1 [Compound 63]
OUT: 40 to 80%

IN: Look up and report measured inhibition at 5 µM for this entry: C=CC(=O)Nc1cnc2c(c1)c(C)nn2-c1ccc(OCC(C)C)cc1 [Compound 78]
OUT: 40 to 80%

IN: Look up and report measured inhibition at 5 µM for this entry: C=CC(=O)Nc1cnc2c(c1)c(C)nn2-c1ccccc1Br [Compound 83]
OUT: < 40%

IN: Look up and report measured inhibition at 5 µM for this entry: C=CC(=O)Nc1cnc2c(c1)c(C)cn2C(=O)c1ccc(C(F)(F)F)cc1 [Compound 24]
OUT: > 80%

IN: Look up and report measured inhibition at 5 µM for this entry: C=CC(=O)Nc1ccc2c(C)nn(Cc3ccc(C(F)(F)F)cc3)c2c1 [Compound 32]
OUT: 40 to 80%
